B1: BCL2L13 (parent)
chain: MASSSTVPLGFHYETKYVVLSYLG

Variants of: B1
Experiment: protein stability index of a GFP-peptide fusion (GPS, HEK-293T) (PSI 1-6); higher = more stable;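 further: lentivirally expressed fusions sorted by FACS into six bins by GFP to DsRed ratio, PSI derived from sequencing read proportions per bin multiplied by bin number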
Settings: c terminus: a fixed tail appended
recorded_endpoint: protein stability index

>>> observed_result("MASSWTVPLGFHYETKYVVLSYLG [S5W]")
2.02
>>> observed_result("MASSSTVPLGFHYETKYVVLSYLK [G24K]")
1.45
>>> observed_result("MATSSTVPLGFHYETKYVVLSYLG [S3T]")
3.21
>>> observed_result("MASSSSVPLGFHYETKYVVLSYLG [T6S]")
2.95
>>> observed_result("MASSSTVPLGFHYITKYVVLSYLG [E14I]")
2.82
>>> observed_result("MASSSTVPLGFHYETYYVVLSYLG [K16Y]")
3.26
>>> observed_result("MASSSTVPLCFHYETKYVVLSYLG [G10C]")
2.1
>>> observed_result("MASSSTVPLTFHYETKYVVLSYLG [G10T]")
3.54
>>> observed_result("MASSSTVPLGFHYETKYVVLSYLQ [G24Q]")
2.62
>>> observed_result("MASSSTVPLGFHYETKYVSLSYLG [V19S]")
2.19
>>> observed_result("MASSSTVPLGFHYETKYKVLSYLG [V18K]")
2.31
>>> observed_result("MASSSTVPLGGHYETKYVVLSYLG [F11G]")
1.35
>>> observed_result("MASSSTVPLGFHYETKYVVLSDLG [Y22D]")
2.4
>>> observed_result("MASSSTVPLGFHYETKHVVLSYLG [Y17H]")
1.95
>>> observed_result("MASSSTVPLGFHYETKYVVLSVLG [Y22V]")
1.89
>>> observed_result("MASSATVPLGFHYETKYVVLSYLG [S5A]")
1.72
>>> observed_result("MASSSTVPLGFHYETKYVVLSILG [Y22I]")
2.02
>>> observed_result("MASSSTVPLGFHYETPYVVLSYLG [K16P]")
1.83
>>> observed_result("MASSSTVDLGFHYETKYVVLSYLG [P8D]")
2.98
>>> observed_result("MASSSTVFLGFHYETKYVVLSYLG [P8F]")
2.74
>>> observed_result("MASSSTVPLGFHYETSYVVLSYLG [K16S]")
2.81
>>> observed_result("MASSSTVPLGFHYEEKYVVLSYLG [T15E]")
2.61
>>> observed_result("MLSSSTVPLGFHYETKYVVLSYLG [A2L]")
2.56
>>> observed_result("MASSSTLPLGFHYETKYVVLSYLG [V7L]")
3.03
>>> observed_result("MASSSTVPLGDHYETKYVVLSYLG [F11D]")
2.03
>>> observed_result("MASSSTVPLGFHYETKYVVLSYLY [G24Y]")
1.89
>>> observed_result("MASSSTVPLGFHYETKYVVLSYLD [G24D]")
2.38
>>> observed_result("MASSSTVPLGFHYETKYAVLSYLG [V18A]")
2.24
>>> observed_result("MASSSTVPLGFHYETKYVPLSYLG [V19P]")
2.2
>>> observed_result("MASSSTVPLGFHYEKKYVVLSYLG [T15K]")
1.4
>>> observed_result("MASSSTVSLGFHYETKYVVLSYLG [P8S]")
2.54
>>> observed_result("MASSSPVPLGFHYETKYVVLSYLG [T6P]")
2.59
>>> observed_result("WASSSTVPLGFHYETKYVVLSYLG [M1W]")
2.52
>>> observed_result("GASSSTVPLGFHYETKYVVLSYLG [M1G]")
3.23
>>> observed_result("MASSSTVPLGFHGETKYVVLSYLG [Y13G]")
2.14
>>> observed_result("MASSSTVPLGFHYETKYVVLYYLG [S21Y]")
2.51
>>> observed_result("MASSSTVPLGFHYETKYYVLSYLG [V18Y]")
2.6
